target: IκB-α kinase; assay: IκB-α kinase inhibitory activity, in vitro kinase assay
experimental_readout: IC50

CN(Cc1ccc(O)c(O)c1)c1nc(NCCO)nc2c1nnn2C: > 100 µM

GET /values?readout=IC50&item= CC(=O)c1cccc(CNc2nc(N[C@@H](CO)C(C)C)nc3c2nnn3C(C)C)c1
> 100 µM

// repeat for Cn1nnc2c(Nc3ccc(C(=O)O)c(Cl)c3)nc(NCCO)nc21 and report
> 100 µM

Queued: CC(C)n1nnc2c(NCc3ccccc3)nc(NCCCO)nc21
> 100 µM

Now consider Cn1nnc2c(Nc3ccc(Cl)c(C(=O)O)c3)nc(NCCO)nc21 .
> 100 µM

Next compound up: CC(C)[C@H](CO)Nc1nc(NCc2cccc(O)c2)c2nnn(C(C)C)c2n1
80 µM
